- ASSAY_METHOD_TEXT: Transformation by slurry in other solvents (n-hexane, toluene, water) and drying, form determined by XRD
- Format: physicochemical
- APPLIED_CONDITIONS: Toluene, dried 63 °C under reduced pressure

- COMPOUND: "CN(C)CCc1c[nH]c2ccc(C[C@H]3COC(=O)N3)cc12 [Form K]"
  XRD sample (form after treatment): "Form A"
- COMPOUND: "CN(C)CCc1c[nH]c2ccc(C[C@H]3COC(=O)N3)cc12 [Form S]"
  XRD sample (form after treatment): "Form A + ˜10% K"
- COMPOUND: "CN(C)CCc1c[nH]c2ccc(C[C@H]3COC(=O)N3)cc12 [Form I]"
  XRD sample (form after treatment): "Form A"
- COMPOUND: "CN(C)CCc1c[nH]c2ccc(C[C@H]3COC(=O)N3)cc12 [Form G]"
  XRD sample (form after treatment): "Form A + ˜10% K"
- COMPOUND: "CN(C)CCc1c[nH]c2ccc(C[C@H]3COC(=O)N3)cc12 [Form N]"
  XRD sample (form after treatment): "Form A"
